- Tested on: HEK293
- PROTOCOL_DESCRIPTION: […] HEK293 cells expressing swedish-mutant APP FAD isoform
- Format: functional, Homo sapiens
- TEST_SETTINGS: read-out: ED50 (the source's name)
READOUT_LABEL: EC50 (nM)

# COMPOUND, TARGET_OR_SYSTEM, READOUT_LABEL, RESULT
records = [
    ("CC(=O)N[C@@H](Cc1cc(F)cc(F)c1)[C@H](O)CNC1(c2cccc(C(C)(C)C)c2)CCNC(=O)C1 (stereo in doubt; 16)", "HEK293", "EC50", 23),
]

---

Cathepsin D (Homo sapiens, UniProt P07339): recorded IC50 for assorted compounds
Sequence (P07339 65-162 limits assumed): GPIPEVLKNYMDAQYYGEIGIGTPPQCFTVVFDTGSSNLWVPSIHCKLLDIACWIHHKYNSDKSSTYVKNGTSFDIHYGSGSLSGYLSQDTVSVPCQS
Sequence (P07339 169-412 limits assumed): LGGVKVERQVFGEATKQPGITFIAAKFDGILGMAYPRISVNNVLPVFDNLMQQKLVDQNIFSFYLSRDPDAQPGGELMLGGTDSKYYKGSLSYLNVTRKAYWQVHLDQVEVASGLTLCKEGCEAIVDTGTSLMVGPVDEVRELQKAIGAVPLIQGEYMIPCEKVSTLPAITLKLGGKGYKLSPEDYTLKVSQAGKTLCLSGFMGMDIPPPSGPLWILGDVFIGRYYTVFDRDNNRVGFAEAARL

# COMPOUND, IC50
data = [
    ("COC(=O)N[C@H]1CC[C@@](NC[C@@H](O)[C@H](Cc2cc(F)cc(F)c2)NC(C)=O)(c2cccc(C(C)(C)C)c2)CN1", "2 µM"),
    ("CC(=O)N[C@@H](Cc1cc(F)cc(F)c1)[C@H](O)CN[C@@]1(c2cccc(C(C)(C)C)c2)CC[C@H](NC=O)NC1", "> 10 µM"),
    ("CC(=O)N[C@@H](Cc1cc(F)cc(F)c1)[C@H](O)CN[C@@]1(c2cccc(C(C)(C)C)c2)CC[C@H](NO)NC1", "3.9 µM"),
    ("CC(=O)N[C@@H](Cc1cc(F)cc(F)c1)[C@H](O)CNC1(c2cccc(C(C)(C)C)c2)CCOCC1 (mixture of isomers)", "0.23 µM"),
    ("CC(=O)N[C@@H](Cc1cc(F)cc(F)c1)[C@H](O)CNC1(c2cccc(C(C)(C)C)c2)CCN(C(N)=O)CC1", "4.3 µM"),
    ("CC(=O)N[C@@H](Cc1cc(F)cc(F)c1)[C@H](O)CNC1(c2cccc(-n3cccn3)c2)CCOC1 (mixture of isomers)", "4.9 µM"),
    ("CON[C@H]1CC[C@@](NC[C@@H](O)[C@H](Cc2cc(F)cc(F)c2)NC(C)=O)(c2cccc(C(C)(C)C)c2)CN1", "0.53 µM"),
    ("CC(=O)N[C@@H](Cc1cc(F)cc(F)c1)[C@H](O)CNC1(c2cccc(C(C)(C)C)c2)CCCN(C(=O)OCc2ccccc2)C1 (mixture of isomers)", "0.0033 µM"),
    ("CO[C@H]1CC[C@@](NC[C@@H](O)[C@H](Cc2cc(F)cc(F)c2)NC(C)=O)(c2cccc(C(C)(C)C)c2)CN1", "0.13 µM"),
    ("CC(=O)N[C@@H](Cc1cc(F)cc(F)c1)[C@H](O)CNC1(c2cccc(C(C)(C)C)c2)CCC(=O)CC1", "0.45 µM"),
    ("CC(=O)N[C@@H](Cc1cc(F)cc(F)c1)[C@H](O)CNC1(c2cccc(C(C)(C)C)c2)CCc2n[nH]cc2C1 (mixture of isomers)", "0.3 µM"),
    ("CC(=O)N[C@@H](Cc1cc(F)cc(F)c1)[C@H](O)CN[C@]1(c2cccc(C(C)(C)C)c2)CC[C@@H](CO)CC1", "0.33 µM"),
    ("CC(=O)N[C@@H](Cc1cc(F)cc(F)c1)[C@H](O)CNC1(c2cccc(C(C)(C)C)c2)CCCN(O)C1 (mixture of isomers)", "0.67 µM"),
    ("CC(=O)N[C@@H](Cc1cc(F)cc(F)c1)[C@H](O)CN[C@@]1(c2cccc(C(C)(C)C)c2)CC[C@H](Nc2ccccn2)NC1", "4.4 µM"),
    ("CC(=O)N[C@H]1CC[C@@](NC[C@@H](O)[C@H](Cc2cc(F)cc(F)c2)NC(C)=O)(c2cccc(C(C)(C)C)c2)CN1", "> 10 µM"),
    ("CC(=O)N[C@@H](Cc1cc(F)cc(F)c1)[C@H](O)CNC1(c2cccc(-n3cccn3)c2)CCCOC1 (mixture of isomers)", "0.17 µM"),
    ("CC(=O)N[C@@H](Cc1cc(F)cc(F)c1)[C@H](O)CNC1(c2cccc(C(C)(C)C)c2)CCCNC1 (mixture of isomers)", "2.33 µM"),
    ("CC(=O)N[C@@H](Cc1cc(F)cc(F)c1)[C@H](O)CNC1(c2cccc(C(C)(C)C)c2)CCCC1 (mixture of isomers)", "0.13 µM"),
    ("CC(=O)N[C@@H](Cc1cc(F)cc(F)c1)[C@H](O)CNC1(c2cccc(C(C)(C)C)c2)CCCN(C(C)=O)C1 (mixture of isomers)", "0.41 µM"),
    ("CC(=O)N[C@@H](Cc1cc(F)cc(F)c1)[C@H](O)CNC1(c2cccc(C(C)(C)C)c2)CCCN(C(N)=O)C1 (mixture of isomers)", "0.09 µM"),
    ("CC(=O)N[C@@H](Cc1cc(F)cc(F)c1)[C@H](O)CN[C@]1(c2cccc(C(C)(C)C)c2)CC[C@@H](O)CC1", "1.4 µM"),
    ("CC(=O)N[C@@H](Cc1cc(F)cc(F)c1)[C@H](O)CN[C@@]1(c2cccc(C(C)(C)C)c2)CC[C@H](C(F)(F)F)NC1", "0.028 µM"),
    ("CC(=O)N[C@@H](Cc1cc(F)cc(F)c1)[C@H](O)CNC1(c2cccc(C(C)(C)C)c2)CCc2nc(N)ncc2C1 (mixture of isomers)", "0.21 µM"),
    ("CC(=O)N[C@@H](Cc1cc(F)cc(F)c1)[C@H](O)CN[C@@]1(c2cccc(C(C)(C)C)c2)CC[C@H](S(C)(=O)=O)NC1", "2.3 µM"),
    ("CC(=O)N[C@@H](Cc1cc(F)cc(F)c1)[C@H](O)CN[C@@]1(c2cccc(C(C)(C)C)c2)CCC(NO)=NC1", "0.43 µM"),
    ("CC(=O)N[C@@H](Cc1cc(F)cc(F)c1)[C@H](O)CNC1(c2cccc(C(C)(C)C)c2)CCC(=O)NC1 (mixture of isomers)", "0.18 µM"),
    ("CC(=O)N[C@@H](Cc1cc(F)cc(F)c1)[C@H](O)CN[C@@]1(c2cccc(C(C)(C)C)c2)CC[C@H](C#N)NC1", "0.64 µM"),
]
